# target_of_assay: mGAT4 (Mus musculus, UniProt P31650)
# Construct: expressed in transfected cells; host or cells: HEK293
# assay_text: [^3H]GABA uptake assay, HEK293 cells expressing mGAT4
# Type: cell-based
# run_parameters: [^3H]GABA uptake; pIC50±SEM
pIC50: −log10 of the molar value.
measurement_type: pIC50

A. COc1ccc(C(OCCN2CCCC(C(=O)O)C2)(c2ccc(OC)cc2)c2ccc(C(C)=O)cc2)cc1 (racemic) [5 b]
B. COc1ccc(C(OCCN2CCCC(C(=O)O)C2)(c2ccc(CO)cc2)c2ccc(OC)cc2)cc1 (racemic) [5 m]
// query Which gives the smaller pIC50 number: A or B ? Answer = label.
// result B

A. COc1ccc(C(OCCN2CCCC(C(=O)O)C2)(c2ccc(OC)cc2)c2ccc(C(=O)O)cc2)cc1 (racemic) [5 e]
B. COc1ccc(C(OCCN2CCCC(C(=O)O)C2)(c2ccc(CNC(C)(C)C(=O)O)cc2)c2ccc(OC)cc2)cc1 (racemic) [5 q]
C. COc1ccc(C(OCCN2CCCC(C(=O)O)C2)(c2ccc(CNCCCC(=O)O)cc2)c2ccc(OC)cc2)cc1 (racemic) [5 s]
// query Sort entries by pIC50 from minimum to maximum value. Would you mind listing the labels in the order asked for?
// result C, B, A

###

# target_of_assay: mGAT4 (Mus musculus)
# Construct: expressed in transfected cells; host or cells: HEK293
# assay_text: [^3H]GABA uptake assay, HEK293 cells expressing mGAT4
# Format: cell-based
# run_parameters: HEK293; in presence of 100 μM compound
measurement_type: remaining activity at 100 µM (%)

Example entries and their recorded answers appear below.
| compound | remaining activity at 100 µM [%] |
| --- | --- |
| CCOC(=O)C1CCCN(CCOC(C(=O)OC)(c2ccc(OC)cc2)c2ccc(OC)cc2)C1 (racemic) [12 k] | 78.2 |
| CCOC(=O)C1CCCN(CCOC(c2ccc(OC)cc2)(c2ccc(OC)cc2)c2ccc(C(N)=O)cc2)C1 (racemic) [12 j] | 60 |
| COc1ccc(C(OCCN2CCCC(C(=O)O)C2)(C(=O)O)c2ccc(OC)cc2)cc1 (racemic) [5 k] | 96.5 |

P. CCOC(=O)c1ccc(C(OCCN2CCCC(C(=O)OCC)C2)(c2ccc(OC)cc2)c2ccc(OC)cc2)cc1 (racemic) [12 e]
Q. CCOC(=O)C1CCCN(CCOC(c2ccc(COC)cc2)(c2ccc(OC)cc2)c2ccc(OC)cc2)C1 (racemic) [12 f]
// query Field: lower recorded remaining activity at 100 µM (choose P or Q ) // return label of chosen record
// result Q
(Q: 50.8%, P: 76.1%)

P. COCc1ccc(C(OCCN2CCCC(C(=O)O)C2)(c2ccc(COC)cc2)c2ccc(COC)cc2)cc1 (racemic) [5 i]
Q. COc1ccc(C(OCCN2CCCC(C(=O)O)C2)(c2ccc(CNc3ccc(C(=O)O)cc3)cc2)c2ccc(OC)cc2)cc1 (racemic) [5 t]
// query Which record would sort first by descending remaining activity at 100 µM, P or Q ? Pick one and reply with its label.
// result P

P. CCOC(=O)C1CCCN(CCOC(c2ccc(CNc3ccc(C(=O)O)cc3)cc2)(c2ccc(OC)cc2)c2ccc(OC)cc2)C1 (racemic) [12 t]
Q. CCOC(=O)C1CCCN(CCOC(c2ccc(OC)cc2)(c2ccc(OC)cc2)c2ccc(S(=O)(=O)N(C)C)cc2)C1 (racemic) [12 c]
// query Which value of remaining activity at 100 µM is smaller, the one for P or the one for Q ? Please indicate the selected item by its label.
// result P
(P: 63.9%, Q: 94.3%)

###

# target_of_assay: mGAT1 (Mus musculus, UniProt P31648)
# Construct: expressed in transfected cells; host or cells: HEK293
# assay_text: [^3H]GABA uptake assay, HEK293 cells expressing mGAT1
# Format: cell-based
# run_parameters: HEK293; in presence of 100 μM compound
# Description: For compounds with pIC50 ([^3H]GABA uptake assay) or pK i (MS Binding Assays) values close to or above 5.0, these experiments were repeated twice and SEM have been calculated. [^3H]GABA uptake assays: The [^3H]GABA uptake assays were performed according to Kragler et al.33 Cells were grown in 150 cm^2 plates to a confluence of 70–90 % up to passage 25. […] Non‐specific uptake was determined in presence of 10 mM GABA for mGAT1, mGAT3 and mGAT4 or 100 mM GABA for mGAT2, respectively. […]
measurement_type: remaining activity at 100 µM (%)

| compound | remaining activity at 100 µM / % |
| --- | --- |
| COc1ccc(C(OCCN2CCCC(C(=O)O)C2)(c2ccc(CNC(C)(C)C(=O)O)cc2)c2ccc(OC)cc2)cc1 (racemic) [5 q] | 80.7 |
| COc1ccc(C(OCCN2CCCC(C(=O)O)C2)(c2ccc(CNCCC(=O)O)cc2)c2ccc(OC)cc2)cc1 (racemic) [5 o] | 94.4 |
| COc1ccc(C(OCCN2CCCC(C(=O)O)C2)(c2ccc(OC)cc2)c2ccc(C(C)=O)cc2)cc1 (racemic) [5 b] | 64.6 |
| CCOC(=O)C1CCCN(CCOC(c2ccc(CNc3ccc(C(=O)O)cc3)cc2)(c2ccc(OC)cc2)c2ccc(OC)cc2)C1 (racemic) [12 t] | 52.3 |
| COCc1ccc(C(OCCN2CCCC(C(=O)O)C2)(c2ccc(COC)cc2)c2ccc(COC)cc2)cc1 (racemic) [5 i] | 90.7 |
| COc1ccc(C(OCCN2CCCC(C(=O)O)C2)(c2ccc(OC)cc2)c2ccc(C(N)=O)cc2)cc1 (racemic) [5 j] | 79.6 |

a. COc1ccc(C(OCCN2CCCC(C(=O)O)C2)(c2ccc(C#N)cc2)c2ccc(OC)cc2)cc1 (racemic) [5 g]
b. COc1ccc(C(OCCN2CCCC(C(=O)O)C2)(c2ccc(CNCCCC(=O)O)cc2)c2ccc(OC)cc2)cc1 (racemic) [5 s]
// query Dear colleague, could you let me know whether a or b has the lower recorded remaining activity at 100 µM? Thanks. Answer by quoting the chosen item's label.
// result b
(b: 48.5%, a: 74.8%)

###

# target_of_assay: mGAT4 (Mus musculus)
# Construct: expressed in transfected cells; host or cells: HEK293
# Sequence (P31650 1-627): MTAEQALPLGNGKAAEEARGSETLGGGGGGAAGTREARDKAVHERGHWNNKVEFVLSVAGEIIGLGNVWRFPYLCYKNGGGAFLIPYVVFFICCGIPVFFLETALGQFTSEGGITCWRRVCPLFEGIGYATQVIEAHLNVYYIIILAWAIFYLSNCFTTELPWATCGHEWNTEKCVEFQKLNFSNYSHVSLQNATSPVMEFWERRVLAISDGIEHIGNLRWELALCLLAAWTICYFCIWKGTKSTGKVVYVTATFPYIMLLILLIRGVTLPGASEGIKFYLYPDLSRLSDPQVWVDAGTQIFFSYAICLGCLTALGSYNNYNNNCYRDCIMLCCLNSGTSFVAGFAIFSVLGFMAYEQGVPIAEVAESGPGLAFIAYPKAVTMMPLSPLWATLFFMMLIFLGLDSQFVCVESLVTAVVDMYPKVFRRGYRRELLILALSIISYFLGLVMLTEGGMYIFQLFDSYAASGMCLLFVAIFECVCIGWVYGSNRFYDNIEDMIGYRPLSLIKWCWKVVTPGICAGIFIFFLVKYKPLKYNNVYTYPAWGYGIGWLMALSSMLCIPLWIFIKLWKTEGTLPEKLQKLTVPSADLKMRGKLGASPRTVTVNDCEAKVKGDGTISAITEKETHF
# assay_text: [^3H]GABA uptake assay, HEK293 cells expressing mGAT4
# Type: cell-based
# run_parameters: HEK293; in presence of 100 μM compound
measurement_type: remaining activity at 100 µM (%)

| compound | remaining activity at 100 µM, % |
| --- | --- |
| COc1ccc(C(O)(CCCN2CCCC(C(=O)O)C2)c2ccc(OC)cc2)cc1 (racemic) | 92 |
| CCOC(=O)C1CCCN(CCOC(c2ccc(C#N)cc2)(c2ccc(OC)cc2)c2ccc(OC)cc2)C1 (racemic) | 71.9 |
| COc1ccc(C(OCCN2CCCC(C(=O)O)C2)(c2ccc(CNCCC(=O)O)cc2)c2ccc(OC)cc2)cc1 (racemic) | 56.3 |
| CCOC(=O)C1CCCN(CCOC(c2ccc(C=O)cc2)(c2ccc(OC)cc2)c2ccc(OC)cc2)C1 (racemic) | 55.9 |
| CCOC(=O)C1CCCN(CCOC(c2ccc(OC)cc2)(c2ccc(OC)cc2)c2ccc(C(C)=O)cc2)C1 (racemic) | 84.2 |
| COc1ccc(C(OCCN2CCCC(C(=O)O)C2)(c2ccc(OC)cc2)c2ccc(C(N)=O)cc2)cc1 (racemic) | 65.2 |

P. CCOC(=O)C1CCCN(CCCC(O)(c2ccc(OC)cc2)c2ccc(OC)cc2)C1 (racemic)
Q. CCOC(=O)C1CCCN(CCOC(c2ccc(COC)cc2)(c2ccc(COC)cc2)c2ccc(COC)cc2)C1 (racemic)
// query Hi, I'm comparing P with Q and wondering which one has the bigger number for remaining activity at 100 µM. Any idea? In your reply, give the label of the chosen option.
// result P
(P: 73.8%, Q: 51.4%)

The origin of these recorded values is paper PMC7317212.
